Tested on: Escherichia coli TOP10;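 note: peptides expressed intracellularly from a pBAD plasmid library in pooled LB shake-flask culture, induced with 0.3% L-arabinose, DNA abundance read by NGS, three biological replicates, DESeq2 with apeglm shrinkage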
Test: shrunken log2 fold change of peptide-encoding DNA abundance (4.5 h post-induction vs induction); higher = less antimicrobial activity (less host growth inhibition)
Details: time post-induction: 4.5 h; library: site-saturation at positions 5, 18, 19, 20
observationType: shrunken log2 fold change
Reply with just the number.

Answer with reported shrunken log2 fold change of RRIRPRPPRLPRPRPRPWLLPRP
-0.111

Answer with reported shrunken log2 fold change of RRIRRRPPRLPRPRPRPQDVPRP
-0.108

Answer with reported shrunken log2 fold change of RRIRYRPPRLPRPRPRPLDYPRP
-1.11

Answer with reported shrunken log2 fold change of RRIRKRPPRLPRPRPRPFQDPRP
0.118

Answer with reported shrunken log2 fold change of RRIRMRPPRLPRPRPRPHIRPRP
-0.0162

Answer with reported shrunken log2 fold change of RRIRDRPPRLPRPRPRPSMDPRP
-0.0183

Answer with reported shrunken log2 fold change of RRIRMRPPRLPRPRPRPMNYPRP
-0.082

Answer with reported shrunken log2 fold change of RRIRTRPPRLPRPRPRPVEFPRP
0.0128

Answer with reported shrunken log2 fold change of RRIRTRPPRLPRPRPRPKRSPRP
0.207

Answer with reported shrunken log2 fold change of RRIRLRPPRLPRPRPRPLDLPRP
-0.481

Answer with reported shrunken log2 fold change of RRIRARPPRLPRPRPRPDWRPRP
0.146

Answer with reported shrunken log2 fold change of RRIRVRPPRLPRPRPRPTPQPRP
0.279

Answer with reported shrunken log2 fold change of RRIRCRPPRLPRPRPRPHHMPRP
-1.36

Answer with reported shrunken log2 fold change of RRIRDRPPRLPRPRPRPCTYPRP
-0.0116

Answer with reported shrunken log2 fold change of RRIRNRPPRLPRPRPRPINWPRP
-0.133

Answer with reported shrunken log2 fold change of RRIRTRPPRLPRPRPRPAIIPRP
-0.233

Answer with reported shrunken log2 fold change of RRIRTRPPRLPRPRPRPRALPRP
0.116

Answer with reported shrunken log2 fold change of RRIRGRPPRLPRPRPRPIEDPRP
0.0783

Answer with reported shrunken log2 fold change of RRIRGRPPRLPRPRPRPRMSPRP
0.28

Answer with reported shrunken log2 fold change of RRIRTRPPRLPRPRPRPCCSPRP
0.123

Answer with reported shrunken log2 fold change of RRIRFRPPRLPRPRPRPRNGPRP
0.101

Answer with reported shrunken log2 fold change of RRIRTRPPRLPRPRPRPIDQPRP
-0.00192

Answer with reported shrunken log2 fold change of RRIRPRPPRLPRPRPRPNRRPRP
-0.0942

Answer with reported shrunken log2 fold change of RRIRPRPPRLPRPRPRPVTGPRP
-0.0902

Answer with reported shrunken log2 fold change of RRIRNRPPRLPRPRPRPVCPPRP
-0.14

Answer with reported shrunken log2 fold change of RRIRHRPPRLPRPRPRPSRWPRP
0.102

Answer with reported shrunken log2 fold change of RRIRIRPPRLPRPRPRPQRYPRP
0.159

Answer with reported shrunken log2 fold change of RRIRMRPPRLPRPRPRPPVEPRP
0.664

Answer with reported shrunken log2 fold change of RRIRRRPPRLPRPRPRPSMPPRP
-0.0915

Answer with reported shrunken log2 fold change of RRIRRRPPRLPRPRPRPVAHPRP
0.605

Answer with reported shrunken log2 fold change of RRIRNRPPRLPRPRPRPQPEPRP
0.0878

Answer with reported shrunken log2 fold change of RRIRRRPPRLPRPRPRPWNAPRP
-0.0963
